Tested on: SNB-75 CNS
ASSAY PROCEDURE: NCI tumour cell line growth inhibition, 48 h; in the data active = GI50 below about 0.43 µM; inactive = the rest
Outcomes: active, inactive

>  <MOLECULE>
CC1SC2(CCCCC2)N(NC(=O)c2[nH]c3ccc(Br)cc3c2-c2ccccc2)C1=O (stereo not given)

>  <CLASS>
inactive

$$$$
>  <MOLECULE>
COc1ccc(-c2c3c(nc4n[nH]c(-c5ccc(Cl)cc5)c24)-c2ccccc2C(=O)C3=O)cc1

>  <CLASS>
inactive

$$$$
>  <MOLECULE>
COCCOCCOCc1n(Cc2ccc3ccccc3n2)c2ccccc2[n+]1Cc1ccc2ccccc2n1

>  <CLASS>
active

$$$$
>  <MOLECULE>
COc1ccc(C(=O)c2sc3nc(-c4cccs4)ccc3c2N)cc1OC

>  <CLASS>
inactive

$$$$
>  <MOLECULE>
CCCCCCNCc1cc(C(C)(C)C)cc(CNCCCCCC)c1O

>  <CLASS>
inactive

$$$$
